- experimentalDetails: Mouse pharmacokinetics study
- Format: in vivo
- experimentalContext: mouse; BALB/c mice, 10 mg/kg oral gavage, 5% DMS/95% PEG400, plasma; read-out: Cmax
- Method: Formulated compounds were administered intravenously or orally via gavage to BALB/c mice. Typically, at 0.167, 0.5, 1, 2, 4, 6, 12, and 24 hours post-dose, blood was collected and processed to plasma by centrifugation and stored at −80° C. until analysis. […] The precipitates were filtered through a filter plate and the samples were analyzed by LC/MS/MS. […] The pharmacokinetics of each compound were analyzed by Phoenix WinNonlin software (Pharsight, St. Louis, Mo.) via noncompartmental analysis. […]
outcomeMeasure: Cmax (ng/mL)

C=CC(=O)NC1[C@H]2CN(Cc3ccc(C(F)(F)F)cc3)C[C@@H]12 (stereo partly drawn) = 1160
C=CC(=O)NC1CCN(Cc2ccc(C(F)(F)F)cc2)CC1 = 735
C=CC(=O)N[C@H]1[C@@H]2CCN(Cc3ccc(C(F)(F)F)cc3)C[C@@H]21 = 318

A. C=CC(=O)N1CC[C@@H](NCc2ccc(C(F)(F)F)cc2)C1
B. C=CC(=O)NC1CCN([C@H](C)c2ccc(C(F)(F)F)cc2)CC1
C. C=CC(=O)NC1CCN(Cc2ccc(C(F)(F)F)cc2)c2ccccc21 (stereo in doubt)
Ascending by Cmax, please: list the compounds accordingly. Answer by listing the labels in the requested order.
C, B, A

* * *

- experimentalDetails: Mouse pharmacokinetics study
- Assay type: in vivo
- experimentalContext: mouse; BALB/c mice, 10 mg/kg oral gavage, 5% DMS/95% PEG400, plasma
outcomeMeasure: AUC(0-t) (ng·h/mL)

Solved cases (4 shown):
C=CC(=O)N[C@H]1[C@@H]2CCN(Cc3ccc(C(F)(F)F)cc3)C[C@@H]21 [Compound I-208] = 226
C=CC(=O)N1CC[C@@H](NCc2ccc(C(F)(F)F)cc2)C1 [Compound I-211] = 1260
C=CC(=O)NC1CCN([C@H](C)c2ccc(C(F)(F)F)cc2)CC1 [Compound I-62] = 368
C=CC(=O)NC1[C@H]2CN(Cc3ccc(C(F)(F)F)cc3)C[C@@H]12 (stereo partly drawn) [Compound I-69] = 1240

1. C=CC(=O)NC1CCN(Cc2ccc(C(F)(F)F)cc2)CC1 [Compound I-46]
2. C=CC(=O)NC1CCN(Cc2ccc(C(F)(F)F)cc2)c2ccccc21 (stereo in doubt) [Compound I-203]
// compare: 1 vs 2 , metric AUC(0-t), want the smaller Label of pick, please.
2
